Reported IC50 is given for each of the following compounds.
- Tested on: THP-1 cells
- experimentSummary: LPS-stimulation of THP-1 cells, TNF-α release by ELISA
- Type: cell-based
- assayContext: Homo sapiens, LPS 1 μg/ml, 6 hrs, inhibitor added 2 hrs before, read-out: Inhibitor activity versus THP-1 TNFα release

CC(C)(C)OC(=O)N[C@@H](CCOc1cc(F)c(-n2c(N)c(C(=O)c3ccc(F)cc3F)ccc2=O)c(F)c1)C(=O)OC1CCCC1 [Intermediate 2] ... 100 to 1000 nM

Please find the next compound below.
Value of measured IC50 for the entry CC(C)(C)OC(=O)N[C@@H](CCCOc1cc(F)c(-n2c(N)c(C(=O)c3ccc(F)cc3F)ccc2=O)c(F)c1)C(=O)OC1CCCC1 [Intermediate 1] : 100 to 1000 nM

----------
- Test system: human whole blood
- experimentSummary: LPS-stimulation of human whole blood, TNF-α release by ELISA
- Type: cell-based
- assayContext: LPS 100 ng/ml, 6 hrs, inhibitor added 2 hrs before, read-out: Inhibitor activity versus human whole blood TNFα release
Structures can show the parent of a compound that is named as a salt.
attributeMeasured: IC50

Solved cases (2 shown):
CC(C)(C)OC(=O)[C@@H](N)CCCOc1cc(F)c(-n2c(N)c(C(=O)c3ccc(F)cc3F)ccc2=O)c(F)c1 ... 100 to 1000 nM
Nc1c(C(=O)c2ccc(F)cc2F)ccc(=O)n1-c1c(F)cc(OCC[C@@H](N)C(=O)OC2CCCC2)cc1F [Example 4, Trifluoroacetate] ... 100 to 1000 nM

Value of measured IC50 for the entry Nc1c(C(=O)c2ccc(F)cc2)ccc(=O)n1-c1c(F)cc(OCCC[C@H](N)C(=O)OC2CCCC2)cc1F : 100 to 1000 nM
